Each recorded value in this set is attributed to PubChem BioAssay AID2060488.

Provide the recorded viability, T/C for the entries that follow.
System: 966289-007-R4-J1-PDC complex spheroid viability
Protocol summary: Anticancer human tumor 966289-007-R4-J1-PDC patient-derived pancreatic adenocarcinoma cell line growth inhibition [GQUAD]
Protocol conditions: second compound 10 µM; first compound 0.1 µM; hits give low values
Write it as a number; the unit % goes unstated.

Value of viability, T/C reported for the molecule Nc1ccn(C2OC(CO)C(O)C2(F)F)c(=O)n1 (stereo not given) + Cc1[nH]c2ccc(F)cc2c1-c1nc2c3cccnc3c3ncccc3c2[nH]1 is 1.07

Value of viability, T/C reported for the molecule C=CC(=O)N1CCN(c2nc(=O)n(-c3c(C)ccnc3C(C)C)c3nc(-c4c(O)cccc4F)c(F)cc23)C(C)C1 (stereo not given) + CN(C)c1ccc(Nc2c3ccc(NC(=O)CCN4CCCC4)cc3nc3cc(NC(=O)CCN4CCCC4)ccc23)cc1 is 101

Value of viability, T/C reported for the molecule CC(C)(O)C1CCC(Nc2ccc3ncc(-c4cccc(C(F)(F)F)c4)n3n2)CC1 (stereo not given) + Cc1[nH]c2ccc(F)cc2c1-c1nc2c3cccnc3c3ncccc3c2[nH]1 is 111

Value of viability, T/C reported for the molecule CC(=O)O[C@H]1C(=O)[C@@]2(C)[C@H]([C@H](OC(=O)c3ccccc3)[C@]3(O)C[C@H](OC(=O)[C@H](O)[C@@H](NC(=O)c4ccccc4)c4ccccc4)C(C)=C1C3(C)C)[C@]1(OC(C)=O)CO[C@@H]1C[C@@H]2O + Cc1cnc(CNC(=O)c2c(=O)c3ccc(N4CCCN(C)CC4)nc3n3c2sc2ccccc23)cn1 is 0.11

Value of viability, T/C reported for the molecule O=C(NO)c1cnc(N2CCN(S(=O)(=O)c3ccc4ccccc4c3)CC2)nc1 + Cc1[nH]c2ccc(F)cc2c1-c1nc2c3cccnc3c3ncccc3c2[nH]1 is 104

---

Test system: 966289-007-R4-J1-PDC complex spheroid viability
Protocol summary: Anticancer human tumor 966289-007-R4-J1-PDC cell line growth inhibition [GQUAD];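 note: spheroids exposed to the agents for seven days before readout; percent viability relative to DMSO vehicle control wells taken as 100%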
Protocol conditions: second compound 1 µM; first compound 0.0316 µM; hits give low values
Provide the recorded viability, T/C for the entries that follow.
Write it as a number; the unit % goes unstated.

Value of viability, T/C reported for the molecule COc1ccc([C@@H](O)c2cc(-c3ncnc4cc(N5CCOCC5)ccc34)c(F)cc2Cl)nn1 + Cc1cnc(CNC(=O)c2c(=O)c3ccc(N4CCCN(C)CC4)nc3n3c2sc2ccccc23)cn1 is 7.16

Value of viability, T/C reported for the molecule COc1cc(C2c3cc4c(cc3C(OC3OC5COC(C)OC5C(O)C3O)C3COC(=O)C23)OCO4)cc(OC)c1O (stereo not drawn) + Cc1cnc(CNC(=O)c2c(=O)c3ccc(N4CCCN(C)CC4)nc3n3c2sc2ccccc23)cn1 is 6.49

Value of viability, T/C reported for the molecule Cn1ncnc1[C@H]1c2n[nH]c(=O)c3cc(F)cc(c23)N[C@@H]1c1ccc(F)cc1 + Cc1cnc(CNC(=O)c2c(=O)c3ccc(N4CCCN(C)CC4)nc3n3c2sc2ccccc23)cn1 is 3.57

---

Test system: 966289-007-R4-J1-PDC complex spheroid viability
Protocol summary: Anticancer human tumor 966289-007-R4-J1-PDC cell line growth inhibition [GQUAD];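 note: spheroids exposed to the agents for seven days before readout; percent viability relative to DMSO vehicle control wells taken as 100%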
Protocol conditions: second compound 0.1 µM; first compound 1 µM; hits give low values
// boundary case: viability, T/C equal to 10% maps to class 0; strictly smaller maps to class 1

[ask] Hello, is viability, T/C of the following compound strictly smaller than 10%? Nc1ccn(C2OC(CO)C(O)C2(F)F)c(=O)n1 (stereo unspecified) + CN(C)c1ccc(Nc2c3ccc(NC(=O)CCN4CCCC4)cc3nc3cc(NC(=O)CCN4CCCC4)ccc23)cc1
[reply] class 1

[ask] Hello, is viability, T/C of the following compound strictly smaller than 10%? COc1ncnc(C2CC2)c1-c1ncc2cnn(Cc3ccc(-c4nc(C(F)(F)F)cn4C(C)C)cc3)c2n1 + CN(C)c1ccc(Nc2c3ccc(NC(=O)CCN4CCCC4)cc3nc3cc(NC(=O)CCN4CCCC4)ccc23)cc1
[reply] class 0

[ask] Hello, is viability, T/C of the following compound strictly smaller than 10%? O=C(c1cc(Cc2n[nH]c(=O)c3ccccc23)ccc1F)N1CCN(C(=O)C2CC2)CC1 + Cc1[nH]c2ccc(F)cc2c1-c1nc2c3cccnc3c3ncccc3c2[nH]1
[reply] class 0

[ask] Hello, is viability, T/C of the following compound strictly smaller than 10%? CC(C)(O)C1CCC(Nc2ccc3ncc(-c4cccc(C(F)(F)F)c4)n3n2)CC1 (stereo unspecified) + CN(C)c1ccc(Nc2c3ccc(NC(=O)CCN4CCCC4)cc3nc3cc(NC(=O)CCN4CCCC4)ccc23)cc1
[reply] class 0

[ask] Hello, is viability, T/C of the following compound strictly smaller than 10%? CC1COCCN1c1cc(C2(O)CC3CCC(C2)O3)c2cnn(-c3ccn[nH]3)c2n1 (stereo unspecified) + Cc1cnc(CNC(=O)c2c(=O)c3ccc(N4CCCN(C)CC4)nc3n3c2sc2ccccc23)cn1
[reply] class 1

[ask] Hello, is viability, T/C of the following compound strictly smaller than 10%? COc1cc(C2c3cc4c(cc3C(OC3OC5COC(C)OC5C(O)C3O)C3COC(=O)C23)OCO4)cc(OC)c1O (stereo unspecified) + Cc1cnc(CNC(=O)c2c(=O)c3ccc(N4CCCN(C)CC4)nc3n3c2sc2ccccc23)cn1
[reply] class 1

[ask] Hello, is viability, T/C of the following compound strictly smaller than 10%? CC1COCCN1c1cc(C2(S(C)(=N)=O)CC2)nc(-c2ccnc3[nH]ccc23)n1 (stereo unspecified) + CN(C)c1ccc(Nc2c3ccc(NC(=O)CCN4CCCC4)cc3nc3cc(NC(=O)CCN4CCCC4)ccc23)cc1
[reply] class 0

[ask] Hello, is viability, T/C of the following compound strictly smaller than 10%? O=C(NO)c1cnc(N2CCN(S(=O)(=O)c3ccc4ccccc4c3)CC2)nc1 + Cc1cnc(CNC(=O)c2c(=O)c3ccc(N4CCCN(C)CC4)nc3n3c2sc2ccccc23)cn1
[reply] class 1

[ask] Hello, is viability, T/C of the following compound strictly smaller than 10%? C=CC(=O)N1CCN(c2nc(=O)n(-c3c(C)ccnc3C(C)C)c3nc(-c4c(O)cccc4F)c(F)cc23)C(C)C1 (stereo unspecified) + Cc1[nH]c2ccc(F)cc2c1-c1nc2c3cccnc3c3ncccc3c2[nH]1
[reply] class 0

[ask] Hello, is viability, T/C of the following compound strictly smaller than 10%? CC1COCCN1c1cc(C2(S(C)(=N)=O)CC2)nc(-c2ccnc3[nH]ccc23)n1 (stereo unspecified) + Cc1[nH]c2ccc(F)cc2c1-c1nc2c3cccnc3c3ncccc3c2[nH]1
[reply] class 0

[ask] Hello, is viability, T/C of the following compound strictly smaller than 10%? COc1cccc2c1C(=O)c1c(O)c3c(c(O)c1C2=O)CC(O)(C(=O)CO)CC3OC1CC(N)C(O)C(C)O1 (stereo unspecified) + Cc1[nH]c2ccc(F)cc2c1-c1nc2c3cccnc3c3ncccc3c2[nH]1
[reply] class 1

[ask] Hello, is viability, T/C of the following compound strictly smaller than 10%? CC1COCCN1c1cc(-c2ccnn2C)c2ccnc(-c3ccn[nH]3)c2n1 (stereo unspecified) + Cc1[nH]c2ccc(F)cc2c1-c1nc2c3cccnc3c3ncccc3c2[nH]1
[reply] class 1

[ask] Hello, is viability, T/C of the following compound strictly smaller than 10%? COc1cc(C2c3cc4c(cc3C(OC3OC5COC(C)OC5C(O)C3O)C3COC(=O)C23)OCO4)cc(OC)c1O (stereo unspecified) + Cc1[nH]c2ccc(F)cc2c1-c1nc2c3cccnc3c3ncccc3c2[nH]1
[reply] class 1

[ask] Hello, is viability, T/C of the following compound strictly smaller than 10%? O=C(NO)c1cnc(N2CCN(S(=O)(=O)c3ccc4ccccc4c3)CC2)nc1 + CN(C)c1ccc(Nc2c3ccc(NC(=O)CCN4CCCC4)cc3nc3cc(NC(=O)CCN4CCCC4)ccc23)cc1
[reply] class 0

[ask] Hello, is viability, T/C of the following compound strictly smaller than 10%? CC(=O)O[C@H]1C(=O)[C@@]2(C)[C@H]([C@H](OC(=O)c3ccccc3)[C@]3(O)C[C@H](OC(=O)[C@H](O)[C@@H](NC(=O)c4ccccc4)c4ccccc4)C(C)=C1C3(C)C)[C@]1(OC(C)=O)CO[C@@H]1C[C@@H]2O + Cc1cnc(CNC(=O)c2c(=O)c3ccc(N4CCCN(C)CC4)nc3n3c2sc2ccccc23)cn1
[reply] class 1

[ask] Hello, is viability, T/C of the following compound strictly smaller than 10%? CCCS(=O)(=O)Nc1ccc(F)c(C(=O)c2c[nH]c3ncc(-c4ccc(Cl)cc4)cc23)c1F + Cc1cnc(CNC(=O)c2c(=O)c3ccc(N4CCCN(C)CC4)nc3n3c2sc2ccccc23)cn1
[reply] class 0

[ask] Hello, is viability, T/C of the following compound strictly smaller than 10%? CC(C)(O)C1CCC(Nc2ccc3ncc(-c4cccc(C(F)(F)F)c4)n3n2)CC1 (stereo unspecified) + Cc1cnc(CNC(=O)c2c(=O)c3ccc(N4CCCN(C)CC4)nc3n3c2sc2ccccc23)cn1
[reply] class 0

[ask] Hello, is viability, T/C of the following compound strictly smaller than 10%? CC1COCCN1c1cc(C2(S(C)(=N)=O)CC2)nc(-c2ccnc3[nH]ccc23)n1 (stereo unspecified) + Cc1cnc(CNC(=O)c2c(=O)c3ccc(N4CCCN(C)CC4)nc3n3c2sc2ccccc23)cn1
[reply] class 0

[ask] Hello, is viability, T/C of the following compound strictly smaller than 10%? O=C(NO)c1cnc(N2CCN(S(=O)(=O)c3ccc4ccccc4c3)CC2)nc1 + Cc1[nH]c2ccc(F)cc2c1-c1nc2c3cccnc3c3ncccc3c2[nH]1
[reply] class 0

[ask] Hello, is viability, T/C of the following compound strictly smaller than 10%? O=C(c1cc(Cc2n[nH]c(=O)c3ccccc23)ccc1F)N1CCN(C(=O)C2CC2)CC1 + CN(C)c1ccc(Nc2c3ccc(NC(=O)CCN4CCCC4)cc3nc3cc(NC(=O)CCN4CCCC4)ccc23)cc1
[reply] class 0
